This collection of values is drawn from PubChem BioAssay AID624255.

# inhibition per entry
experiment: T. cruzi intracellular proliferation inhibitors, primary screen, cell-based, beta-gal Tulahuen parasites, NIH3T3 host, luminescence (AID 624255); settings: T. cruzi beta-gal in NIH3T3, GalScreen luminescence, 90 h; at 8.34 µM; hits give high values
About 4,600 (6%) of roughly 77,000 compounds were called active. Not shown: some 1% with an inconclusive outcome. For the sample, actives were picked, then their nearest neighbours and some compounds at random.
Field: numeric (%). Do not append units.

Check out these entries, answers already filled in.
{"inputSmiles": "CO[C@@H]1CC[C@@H]2CCOc3ccc(C#N)cc3C(=O)N(C)C[C@@H](C)C(=O)N(C)C[C@@H]1O2", "inhibition [%]": 9.86}
{"inputSmiles": "COc1ccc(S(=O)(=O)N(C)C[C@H]2OCCCC[C@H](C)Oc3ccc(NS(=O)(=O)c4c(C)noc4C)cc3C(=O)N([C@@H](C)CO)C[C@@H]2C)cc1", "inhibition [%]": 23.4}

API: the following record is the query input.
Lookup: What value of inhibition has been recorded for this entry: Cc1noc(C)c1S(=O)(=O)Nc1ccc2c(c1)C(=O)N([C@@H](C)CO)C[C@H](C)[C@@H](CN(C)C(=O)Nc1cccc3ccccc13)OCCCC[C@H](C)O2
Found: 104
